# testedSystem: angiotensin-converting enzyme (ACE) (Oryctolagus cuniculus, UniProt P12822)
# Sequence (P12822 34-1310): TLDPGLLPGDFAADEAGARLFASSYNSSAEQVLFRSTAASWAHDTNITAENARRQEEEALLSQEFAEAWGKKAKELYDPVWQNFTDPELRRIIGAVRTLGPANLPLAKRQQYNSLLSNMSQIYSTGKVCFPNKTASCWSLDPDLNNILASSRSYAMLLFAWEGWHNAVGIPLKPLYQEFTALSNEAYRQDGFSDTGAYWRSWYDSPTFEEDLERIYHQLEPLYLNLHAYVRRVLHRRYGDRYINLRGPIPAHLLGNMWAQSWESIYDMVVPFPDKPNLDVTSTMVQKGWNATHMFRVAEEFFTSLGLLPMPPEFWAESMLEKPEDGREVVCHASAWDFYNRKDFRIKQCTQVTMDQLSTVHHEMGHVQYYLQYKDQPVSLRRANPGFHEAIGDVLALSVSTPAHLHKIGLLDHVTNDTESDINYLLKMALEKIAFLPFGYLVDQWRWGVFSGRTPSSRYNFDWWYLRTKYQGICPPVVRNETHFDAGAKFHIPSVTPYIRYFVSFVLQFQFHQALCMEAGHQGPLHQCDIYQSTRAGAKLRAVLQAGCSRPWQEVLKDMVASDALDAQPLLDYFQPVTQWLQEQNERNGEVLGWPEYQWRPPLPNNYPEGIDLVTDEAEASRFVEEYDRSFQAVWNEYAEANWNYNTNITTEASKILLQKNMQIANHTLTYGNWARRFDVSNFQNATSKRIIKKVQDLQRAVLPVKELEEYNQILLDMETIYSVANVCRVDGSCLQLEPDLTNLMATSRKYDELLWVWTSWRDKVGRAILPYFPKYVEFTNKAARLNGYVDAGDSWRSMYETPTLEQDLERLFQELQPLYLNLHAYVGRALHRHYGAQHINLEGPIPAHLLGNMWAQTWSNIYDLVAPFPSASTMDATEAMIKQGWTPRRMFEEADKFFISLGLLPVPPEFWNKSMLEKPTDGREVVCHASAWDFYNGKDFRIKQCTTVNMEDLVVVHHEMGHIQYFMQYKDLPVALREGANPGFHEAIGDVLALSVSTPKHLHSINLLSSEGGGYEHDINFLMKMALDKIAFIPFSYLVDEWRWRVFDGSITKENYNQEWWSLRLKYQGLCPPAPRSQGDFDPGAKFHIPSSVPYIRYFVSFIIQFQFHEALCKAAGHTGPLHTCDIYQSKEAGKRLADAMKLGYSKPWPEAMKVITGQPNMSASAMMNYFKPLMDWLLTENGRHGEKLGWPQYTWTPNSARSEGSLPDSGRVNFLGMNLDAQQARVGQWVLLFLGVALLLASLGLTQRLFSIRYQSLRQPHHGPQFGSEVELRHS
# assayName: Angiotensin-converting enzyme inhibitory activity (ACEIa) in vitro
# Assay type: biochemical
# experimentalSetup: synthetic peptides of bovine casein permeate fractions; read-out: ACE-inhibitory activity CI50
Where no end group is shown, it is not given here.
readout: pIC50
Answers are plain numbers, as −log10 of the molar value.

What does the record list as pIC50 for HLPLPLL [SEQ. ID. No. 14, HLPLPLL] ?
4.47
